System: MS2 coat protein
Assay Summary: apparent KD of MS2 coat protein; higher = weaker reporter binding
Recorded Conditions: Eterna round: R107; input ligand: none
Recorded Endpoint: apparent KD of MS2 coat protein (nM)
Answers are plain numbers, in nM.

Worked set:
Sequence String | Tested Target | apparent KD of MS2 coat protein / nM
AGUAGCUGCCGAAGGAGCGCCGUGUUCCUACAUGAGGAUCACCCAUGUAGCGUUGGGUUACGGCAGGUAGGUCGCGGCAGAUAGG [#18 Same State - Arginine B] | MS2 coat protein | 30
GUGGGUUUGCGAAGGAGCGGGUAUGUUUUCUACUGGAUCCUAACAUGAGGAUCACCCAUGUCCCAGGUAGGUCGCGCGGGCUUGG [12.Z] | MS2 coat protein | 215
AAAAUAAAGGCGGCCGCCACUAGAGUUAGGCAUAUGUACUGGGUAACAUGAGGAUCACCCAUGUAUAGGACCGGGCCAUAAUAAA [Same State - Tryptophan B (Freestyle 1)] | MS2 coat protein | 39.9
UUAUGCAGGUCGGCCGCCACUACACACAUGAGGAUCACCCAUGUAGUUACUGGGUGAAGUGGCAGUAGGACCGGGACCUGCACAU [Brourdmod13] | MS2 coat protein | 479
UCGUGAGUUUCGGAUACCAGUGUGGUCGAUACAUGAGGAUCACCCAUGUUAGAGGAGGUACACCCUUGGCAGCCGGCUGUGGCGG [hlhmullin] | MS2 coat protein | 23.5

Look up apparent KD of MS2 coat protein for this sequence: UAAGCGCGAGGAGACGGAACCAAUCUUGUUCGAGGACCGGUACGGCCGCCACUCGGCGUAAAACAUGAGGAUCACCCAUGUGCAA [theeternabot_exclusion_MS2_Trp_A_18]
13.2

###

System: MS2 coat protein
Assay Summary: apparent KD of MS2 coat protein; higher = weaker reporter binding
Recorded Conditions: Eterna round: R107; input ligand: tryptophan 2.4 mM
Recorded Endpoint: apparent KD of MS2 coat protein (nM)
One number for each entry, in nM.

Batch lookup, apparent KD of MS2 coat protein per entry.
1. UCACAUGAGGAUCACCCAUGUACAGGCGAUACCAGCCGUACAUUGGGCCCUUGGCAGCGCAUCGAGACCUUUAUAAGCACCUCGG [Ceusbi]
2. GACCUUGCGGGCGCCCGCAAGGUCGCGGAUACCAGCGAGGUCCAUCGCCCUUGGCAGCCGAACAUGAGGAUCACCCAUGUCGGUU [Same State - Theophylline A Attempt #5 (HarryS)]
3. GCUGUACCAUGAAGGAGCGUCGUUGAUUGAGAAUACACAUGAGGAUCACCCAUGUUUUUAUGACAGGUAGGUCGCAUGGUACAGC [SSAB #16]

81.6
11
12.1

###

Test system: MS2 coat protein
Assay Summary: apparent KD of MS2 coat protein; designed switch direction (-1 OFF switch, 1 ON switch): -1; higher = weaker reporter binding
Recorded Conditions: input ligand: FMN 200 uM
Recorded Endpoint: apparent KD of MS2 coat protein (nM)
Answers are plain numbers, in nM.

Worked set:
Sequence String | Unit Label | apparent KD of MS2 coat protein
AGAUGCUCAAGUCGACAUGAGGAUCACCCAUGUACAGUUAAUGAGGAUAUCCGAGAUAAAUAAUAGGAGAAGGCAUGAUCAUGA [Ex NG3 #4] (Eterna round: R96, puzzle: Exclusion NG 3) | nM | 103
ACGCAUUGCCUUUGGUAGUGCGUAACAUGAGGAUCACCCAUGUAGGAUAUGGUAGGCUUUGCUUACCAGAAGGACAUAAUAAAU [Mat - Exclusion NG 3 - Mod of JL - D2] (Eterna round: R96, puzzle: Exclusion NG 3) | nM | 52.7
UUAUAACAUGAGGAUCACCCAUGUUAGGAUAUCAGGUACGAGCGCCGUGCUCAGGCCCUGAGAAGGAGCAUGGC [Eternabot (L1) Solution 36] (Eterna round: R97, puzzle: Exclusion 1) | nM | 14.9

Batch lookup, apparent KD of MS2 coat protein per entry.
1. GAUCCUCGGGUUAGGAUAUCGAGGAUGUACGUCAGCGAGAAGGAACAUGAGGAUCACCCAUGUUGCUUAGCAAG [BmEX4 A.18] (Eterna round: R97, puzzle: Brourd's mod of Exclusion 4)
2. GUCAGCUCGUGAGGAUAUACAUGAGGAUCACCCAUGUGAUCAAUAGCAGCUUCGGCUGCAUUAAUGUAGAAGGCACGAGCUGAC [ENG2/5-A1] (Eterna round: R96, puzzle: Exclusion NG 2)
3. CUUUAGCAAGCGAGAUCCCACAUGAGGAUCACCCAUGUGCAUCCAGAAUUACUGGGUGCAAAAGCUCGUCUUAUAUC [mod-Eli newdang-1b] (Eterna round: R97, puzzle: Sensor, turn-off variant 1)
4. AGCCACAGAGGAUAUACAUACAUCCAGUAGCGGAUAUCGCUACAUGAGGAUCACCCAUGUAGAAGGCUGUGGCA [Omei Ex2 BD B22] (Eterna round: R97, puzzle: Exclusion 2)
5. CUGCUCCGUGUAGGAUAUCCGUGCAACCAAUACGGAGAAGGACAUGAGGAUCACCCAUGUAUGUUAUUAUCACGUGAAGCGUCC [Design 24] (Eterna round: R96, puzzle: Exclusion NG 1)
6. CCCACAAGCUUUUUGCUCGACAUGAGGAUCACCCAUGUUGAAUGGGUUAGAUGUGUGUGAAACAUAUAUAUUUACCU [-24.2, -47 kcal, A 27%] (Eterna round: R97, puzzle: Sensor, turn-off variant 1)
7. UCUUGUUGUCCUUGAUUUUACAUGAGGAUCACCCAUGUUAUUUUGAUUAUGAUGUGUAAGUUUGUUGCUCGUUUUAU [JR_STOV1_Sub068] (Eterna round: R97, puzzle: Sensor, turn-off variant 1)
8. UACUUGUUAGGAUAUCUUACAUUUGCAUCAUAGUAACCUUUGGAGAAGGGACAUGAGGAUCACCCAUGUUUGGU [tap-tap-tappy6] (Eterna round: R97, puzzle: Exclusion 4)

1: 21.1; 2: 61.8; 3: 58.4; 4: 148; 5: 23.1; 6: 25.5; 7: 49.8; 8: 49.2

Look up apparent KD of MS2 coat protein for this sequence: AAUAAUUGUGACUUGGGUGACAUGAGGAUCACCCAUGUCACAAGCUUGUUGCUCGCCUUGUAAUUAACCCAUGUCAC [LRO Sensor-off var1-27 mod of Stov1-13-A1 by Brourd] (Eterna round: R97, puzzle: Sensor, turn-off variant 1)
22.2
